Listing of entries alongside the reported fluorescence slope.
molecular target: Muscarinic acetylcholine receptor M4 (Homo sapiens) (UniProt P08173); experiment: M4-linked GIRK flux change, two-sided – cell-based, HEK293 M4/GIRK, thallium flux, BTC-AM, M4 allosteric agonist project, primary screen (AID 625); details: at 10 µM, actives lie on both sides;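 also: thallium influx through GIRK channels coupled to M4 in HEK293 cells with BTC-AM dye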
Sequence (P08173 whole entry, looked up): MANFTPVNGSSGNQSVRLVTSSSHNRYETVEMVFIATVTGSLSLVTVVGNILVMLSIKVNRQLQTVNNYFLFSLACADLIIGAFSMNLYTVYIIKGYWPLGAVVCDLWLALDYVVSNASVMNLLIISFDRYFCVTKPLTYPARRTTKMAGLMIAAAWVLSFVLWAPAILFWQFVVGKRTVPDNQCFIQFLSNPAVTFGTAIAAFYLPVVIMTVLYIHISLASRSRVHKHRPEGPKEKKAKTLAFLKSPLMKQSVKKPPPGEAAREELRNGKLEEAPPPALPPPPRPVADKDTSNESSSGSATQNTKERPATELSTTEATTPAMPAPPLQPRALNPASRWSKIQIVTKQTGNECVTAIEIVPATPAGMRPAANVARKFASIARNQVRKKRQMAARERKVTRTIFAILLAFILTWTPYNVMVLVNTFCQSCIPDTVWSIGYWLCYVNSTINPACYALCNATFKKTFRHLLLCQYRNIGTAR
Give the figure only, with no unit attached.

INSERT INTO results (compound, value_measured) VALUES
  ('O=C1NC(=O)C2(CCC(C(=O)O)C2)N1 (stereo unspecified)', 0.00541),
  ('O=C(Cn1cnc2c(nnn2-c2ccc(F)cc2)c1=O)NCc1ccco1', 0.00537),
  ('CCOc1ccc2[nH]c(=O)c(CN(Cc3ccccc3)C(=O)N3CCCC3)cc2c1', 0.00557);

**Q:** Report fluorescence slope for `O=C(Nc1ccc(N2CCOCC2)c(F)c1)c1ccncc1`
**A:** 0.00591

**Q:** Report fluorescence slope for CCC(C)NC(=O)CSC1=Nc2ccccc2C2=NC(CC(=O)NCc3ccccc3)C(=O)N12 (stereo unspecified)
**A:** 0.00538

**Q:** Report fluorescence slope for CC1(c2ccc(OC(F)F)cc2)NC(=O)N(CC(=O)Nc2ccc3c(c2)OCO3)C1=O (stereo unspecified)
**A:** 0.00647

**Q:** Report fluorescence slope for COc1ccc(NC(=O)CCCN2C(=O)C3C4C=CC(C4)C3C2=O)c(OC)c1 (stereo unspecified)
**A:** 0.00549

**Q:** Report fluorescence slope for Cc1noc(C)c1C(=O)OCC(=O)Nc1ccccc1C(=O)NC(C)c1ccccc1 (stereo unspecified)
**A:** 0.00545

**Q:** Report fluorescence slope for COc1ccc(-c2cc(C(F)F)n3ncc(C(=O)NCC4CCCO4)c3n2)cc1 (stereo unspecified)
**A:** 0.00542

**Q:** Report fluorescence slope for Cc1ccc(NC(=O)C2CCCNC2=O)nc1 (stereo unspecified)
**A:** 0.00534

**Q:** Report fluorescence slope for `O=C(Cc1c(O)c2ccccc2[nH]c1=O)NCc1ccc(F)cc1`
**A:** 0.00681
